Hello, the source for this data is DBAASP, in case you need it.

For each of the compounds below, state its MIC.
system: Candida albicans ATCC 2002
Answers are plain numbers, in µM.

Some solved entries appear below for comparison.
Data request: Which MIC is reported for this compound? CC[C@H](C)[C@H](NC(=O)CN)C(=O)N[C@@H](CC(C)C)C(=O)N[C@@H](CO)C(=O)NCC(=O)N[C@@H](CC(C)C)C(=O)N[C@@H](CC(C)C)C(=O)NCC(=O)N[C@H](C(=O)NCC(=O)N[C@@H](CCCCN)C(=O)N[C@@H](CCSC)C(=O)N[C@@H](CC(C)C)C(=O)N[C@H](C(=O)N[C@H]1CSSC[C@@H](C(=O)O)NC(=O)[C@H](CC(C)C)NC(=O)CNC(=O)[C@H](CO)NC(=O)[C@H](CC(C)C)NC(=O)CNC1=O)C(C)C)C(C)C [GILSGLLGVGKMLVCGLSGLC]
Data returned: 5.12

Data request: Which MIC is reported for this compound? CC[C@H](C)[C@H](NC(=O)[C@H](CC(N)=O)NC(=O)[C@@H](NC(=O)[C@H](C)N)C(C)C)C(=O)N1CCC[C@H]1C(=O)N[C@@H](Cc1ccccc1)C(=O)N[C@@H](CCCCN)C(=O)N[C@H](C(=O)N[C@@H](Cc1cnc[nH]1)C(=O)N[C@@H](Cc1ccccc1)C(=O)N[C@@H](CCCN=C(N)N)C(=O)N[C@H]1CSSC[C@@H](C(=O)O)NC(=O)[C@H](Cc2ccccc2)NC(=O)[C@H](C)NC(=O)[C@H](C)NC(=O)[C@H](CCCCN)NC1=O)C(C)C [AVNIPFKVHFRCKAAFC]
Data returned: 10.4

Data request: Which MIC is reported for this compound? CC[C@H](C)[C@H](N)C(=O)N[C@@H](CC(C)C)C(=O)NCC(=O)N1CCC[C@H]1C(=O)N[C@H](C(=O)N[C@H](C(=O)N[C@@H](CO)C(=O)N[C@H](C(=O)N[C@H](C(=O)NCC(=O)NCC(=O)N[C@H](C(=O)N[C@@H](CC(C)C)C(=O)NCC(=O)NCC(=O)N[C@@H](CC(C)C)C(=O)N[C@@H](CC(C)C)C(=O)N[C@@H](CCCCN)C(=O)N[C@@H](CC(N)=O)C(=O)N[C@@H](CC(C)C)C(N)=O)C(C)C)[C@@H](C)CC)[C@@H](C)O)[C@@H](C)CC)C(C)C [ILGPVISTIGGVLGGLLKNL]
Data returned: 2.33

Data request: Which MIC is reported for this compound? CC[C@H](C)[C@@H]1NC(=O)[C@@H](NC(=O)[C@H](CCCN=C(N)N)NC(=O)[C@H](CO)NC(=O)[C@@H](N)[C@@H](C)O)CSSC[C@@H](C(=O)N[C@@H](CO)C(=O)O)NC(=O)[C@H](CCCCN)NC(=O)[C@H](CCCCN)NC(=O)[C@H](CCCN=C(N)N)NC(=O)[C@H](CCCN=C(N)N)NC(=O)[C@H](Cc2ccc(O)cc2)NC(=O)[C@H](Cc2ccccc2)NC1=O [TSRCIFYRRKKCS]
Data returned: 18.2

Shifting focus to the compound that follows.
Data request: Which MIC is reported for this compound? CC[C@H](C)[C@H](NC(=O)[C@@H]1CCCN1C(=O)[C@H](Cc1ccccc1)NC(=O)[C@@H](N)Cc1ccccc1)C(=O)N[C@H](C(=O)NCC(=O)N[C@@H](CCCCN)C(=O)N[C@@H](CCCN=C(N)N)C(=O)N[C@@H](CC(C)C)C(=O)N[C@@H](Cc1ccc(O)cc1)C(=O)NCC(=O)N[C@@H](CC(C)C)C(=O)N[C@@H](CC(C)C)C(N)=O)C(C)C [FFPIVGKRLYGLL]
Data returned: 24.6
